target: DPP-4 (Homo sapiens)
Sequence (P27487 39-766): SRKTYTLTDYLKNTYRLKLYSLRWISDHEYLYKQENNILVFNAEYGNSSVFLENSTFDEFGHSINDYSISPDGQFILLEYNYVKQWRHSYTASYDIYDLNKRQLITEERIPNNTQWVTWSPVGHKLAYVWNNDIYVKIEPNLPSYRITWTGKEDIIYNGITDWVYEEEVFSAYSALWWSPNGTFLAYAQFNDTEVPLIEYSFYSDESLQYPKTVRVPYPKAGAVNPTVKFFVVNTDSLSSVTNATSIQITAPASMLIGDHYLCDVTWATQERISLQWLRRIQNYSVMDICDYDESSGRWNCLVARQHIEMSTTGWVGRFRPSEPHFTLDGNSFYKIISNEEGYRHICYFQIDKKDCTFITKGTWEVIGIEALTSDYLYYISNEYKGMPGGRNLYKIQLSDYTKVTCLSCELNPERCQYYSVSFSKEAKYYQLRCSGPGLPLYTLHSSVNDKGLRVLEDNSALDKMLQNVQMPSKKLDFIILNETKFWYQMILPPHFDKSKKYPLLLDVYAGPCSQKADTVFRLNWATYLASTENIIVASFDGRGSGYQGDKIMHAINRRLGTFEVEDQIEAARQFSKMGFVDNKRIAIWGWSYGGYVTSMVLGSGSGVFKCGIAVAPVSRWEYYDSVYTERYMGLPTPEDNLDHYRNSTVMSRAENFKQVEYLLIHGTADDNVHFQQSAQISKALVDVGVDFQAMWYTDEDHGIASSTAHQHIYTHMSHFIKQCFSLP
pIC50: −log10 of the molar value.
quantity.measured: pIC50

> print(dat)
             smiles.notation  result.value
1  O=C(O)/C=C/c1ccc(O)c(O)c1          3.80
